assay.target: glutathione S-transferase [GST: P08515]
Sequence (P08515 whole entry): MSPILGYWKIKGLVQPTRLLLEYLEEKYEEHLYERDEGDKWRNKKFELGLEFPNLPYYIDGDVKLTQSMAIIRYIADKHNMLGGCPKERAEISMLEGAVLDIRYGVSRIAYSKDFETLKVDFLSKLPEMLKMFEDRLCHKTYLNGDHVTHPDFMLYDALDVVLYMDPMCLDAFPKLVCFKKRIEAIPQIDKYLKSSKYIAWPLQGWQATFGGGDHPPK
experiment: indirect ELISA, GST coated
observation.type: ELISA affinity (LogIC50 (oD450nm))

binder	ELISA affinity (LogIC50 (oD450nm))
G98 (VHH) VHH: QVQLVESGGGLVQAGDSLRLSCATSGRTFSTYAAGWFRQRPGKEREFVATIHWNDGRTLYADSVKGRFTLSRDNAQNTVYLQMNSLKPEDTAVYYCAASTYRIGSYDVSTSQGYDYWGQGTQVTVSS	4.67

(P) G66 (VHH) VHH: QVQLVESGGGLVQAGGSLRLSCATSGRTFSTYAMGWFRQRPGKEREFVATIHWSDGRTLYTDSVKGRFTLSRDNAQNTVYLQMNSLKPEDTAVYYCAAATYRIGSYDVSTSQGYNYWGQGTQVTVSS
(Q) G39 (VHH) VHH: HVQLVESGGELVQSGSSLRLSCAASGFDLDDYAIGWFRQAPGKEREGVSCTSTSDGPTSYLDSVKGRFTFSRDNAKNTLYLQMNSLKPEDTAVYYCAAISHIFAEDAPAMGLCWDQRSAFWYWGQGTQVTVSS
(R) G41 (VHH) VHH: DVQLVESGGGLVQAGGSLRLSCVASGHTVSNYAMAWFRQAPGKEREFVAGISWRASITYYRDSVKGRFTISRDNAKNTVYLQMSSLKPEDTAVYYCASDKTHYVSRGTSLVEYDYWGQGTQVTVSS
rank_up(items): orders items by reported ELISA affinity (LogIC50 (oD450nm)) in ascending numerical order. Write the labels out in the order the request specifies.
R, Q, P
